target: Internal ribosome entry site (IRES)
test.details: Binding affinity to HCV 2AP54-labelled IRES subdomain 2a RNA C55A mutant in presence of 1 mM Mg2+ by FRET assay
Format: nucleic-acid assay, Hepacivirus hominis
quantity.name: EC50 (nM)
Write the answer as a number in nM, unit excluded.

Qu. # EC50 lookup, item CN(C)CC1COc2ccc3nc4n(c3c2C1)CC(CN(C)C)CN4 (stereo unspecified)
Ans. 650

----------
target: Internal ribosome entry site (IRES)
test.details: Binding affinity to HCV 2AP54-labelled IRES subdomain 2a RNA by mass spectrometry
quantity.name: Kd (nM)
Give just the numeric value; nM need not be written.

Qu. Requested read-out: Kd. Entry: CN(C)CC1COc2ccc3nc4n(c3c2C1)CC(CN(C)C)CN4 (stereo unspecified)
Ans. 720

----------
target: Internal ribosome entry site (IRES)
test.details: Binding affinity to HCV 2AP54-labelled IRES subdomain 2a RNA C58A mutant in presence of 1 mM Mg2+ by FRET assay
Format: nucleic-acid assay, Hepacivirus hominis
quantity.name: pEC50
Note on pEC50: it is the negative log10 of concentration, concentration in mol/L.

Qu. What measured pEC50 goes with CN(C)CC1COc2ccc3nc4n(c3c2C1)CC(CN(C)C)CN4 (stereo unspecified) ?
Ans. 6.12

----------
target: Internal ribosome entry site (IRES)
test.details: Binding affinity to HCV 2AP54-labelled IRES subdomain 2a RNA U56G/A57U mutant in presence of 1 mM Mg2+ by FRET assay
Format: nucleic-acid assay, Hepacivirus hominis
quantity.name: pEC50
In plain terms, pEC50 is the concentration in mol/L turned into minus its base-10 logarithm.

Qu. Which measured pEC50 value corresponds to CN(C)CC1COc2ccc3nc4n(c3c2C1)CC(CN(C)C)CN4 (stereo unspecified) ?
Ans. 5.39

----------
target: Internal ribosome entry site (IRES)
test.details: Binding affinity to HCV 2AP54-labelled IRES subdomain 2a RNA in presence of 0.3 mM Mg2+ by FRET assay
Type: nucleic-acid assay, Hepacivirus hominis
quantity.name: pEC50
pEC50 here: minus log base 10 of the concentration, concentration in moles per litre.

Qu. Endpoint output: pEC50 of CN(C)CC1COc2ccc3nc4n(c3c2C1)CC(CN(C)C)CN4 (stereo unspecified) . Value?
Ans. 6.59
